Biological target: Cholinesterase (Equus caballus, UniProt P81908)
Sequence (P81908 whole entry): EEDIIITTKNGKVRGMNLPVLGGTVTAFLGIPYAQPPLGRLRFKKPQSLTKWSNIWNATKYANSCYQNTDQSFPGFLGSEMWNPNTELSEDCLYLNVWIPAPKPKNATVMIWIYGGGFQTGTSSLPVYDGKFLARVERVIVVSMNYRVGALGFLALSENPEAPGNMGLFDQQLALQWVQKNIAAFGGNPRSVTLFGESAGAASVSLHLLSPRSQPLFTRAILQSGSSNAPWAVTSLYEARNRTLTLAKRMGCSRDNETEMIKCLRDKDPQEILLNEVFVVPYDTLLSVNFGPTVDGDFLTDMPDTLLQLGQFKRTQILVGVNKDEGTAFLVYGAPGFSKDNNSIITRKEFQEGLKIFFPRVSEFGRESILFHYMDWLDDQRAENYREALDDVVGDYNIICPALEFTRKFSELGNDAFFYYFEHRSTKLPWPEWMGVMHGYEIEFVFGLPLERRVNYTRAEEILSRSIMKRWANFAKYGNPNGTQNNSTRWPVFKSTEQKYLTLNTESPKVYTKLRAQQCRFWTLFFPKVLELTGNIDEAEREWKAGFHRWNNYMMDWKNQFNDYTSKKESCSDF
Test: Inhibition of equine serum BuChE using butylthiocholine iodine as substrate preincubated for 20 mins followed by substrate addition and measured after 20 mins by DTNB reagent based Ellman's method
quantity: pIC50
pIC50 here: minus log base 10 of the concentration, concentration in moles per litre.

Would you please look over these solved cases?
O=c1cc(OCCCNC2CCN(Cc3ccccc3)CC2)c2ccc(-c3cccnc3)cc2o1    4.49
O=c1cc(OCCCN2CCC(NCc3ccsc3)CC2)c2ccc(-c3cccnc3)cc2o1    5.00
O=c1cc(OCCCN2CCC(NCc3ccccc3)CC2)c2ccc(Br)cc2o1    4.45
Cc1ccc(CNC2CCN(CCCOc3cc(=O)oc4cc(-c5cccnc5)ccc34)CC2)cc1    4.79
O=c1cc(OCCCN2CCC(NCc3ccccc3)CC2)c2ccc(-c3ccc(F)nc3)cc2o1    4.35
O=C(Nc1cc(-c2ccc3c(OCCCN4CCC(NCc5ccccc5)CC4)cc(=O)oc3c2)ccn1)C1CC1    4.54

Req: Please give the documented pIC50 of COc1ccc(CNC2CCN(CCCOc3cc(=O)oc4cc(-c5cccnc5)ccc34)CC2)cc1
Resp: 4.95

Req: Please supply the value of reported pIC50 for the item COc1cccc(CNC2CCN(CCCOc3cc(=O)oc4cc(-c5cccnc5)ccc34)CC2)c1
Resp: 4.95

Req: Read off the recorded pIC50 for O=c1cc(OCCCN2CCC(NCc3ccc(F)c(F)c3)CC2)c2ccc(-c3cccnc3)cc2o1
Resp: 4.64

Origin of measurements: ChEMBL document CHEMBL5352400
